Read-out: Monokine induced gamma interferon (MIG), CXCL9 (gene 4283)
Assay: BSK_hDFCGF_MIG: BioMAP Diversity Plus: hDFCGF Assay for Monokine induced gamma interferon (MIG) Biomarker Activity (AID 2283063)
Details: primary human foreskin fibroblasts; actives raise or lower the signal
The source made the active and inactive calls. How the source made its calls: active means hit-call score of the fitted dose curve at least 0.9, where 1 is the maximum; inactive means score below 0.9.
Use one of these outcomes when replying: TRUE for active, FALSE for inactive

Below, 4 compounds whose answers are already recorded.
compound | qualitative_label
C#CCOC(=O)/C=C(C)/C=C/CC(C)CCCC(C)C (stereo not given) | FALSE
CCCCCCCCCCCCN(C)C | FALSE
CCOP(=O)(OCC)OC(=CCl)c1ccc(Cl)cc1Cl | TRUE
O=S(=O)(c1ccc(Cl)cc1)c1cc(Cl)c(Cl)cc1Cl | FALSE

Moving on to the next compound.
What classification did CC(C)(C)c1cc([N+](=O)[O-])cc(C(C)(C)C)c1O end up with in this test?
FALSE
